- TARGET_SYSTEM: T1, human erythropoietin receptor (EpoR) on UT-7/Epo cells (human, UniProt P19235 25-508)
- T1 sequence (looked up): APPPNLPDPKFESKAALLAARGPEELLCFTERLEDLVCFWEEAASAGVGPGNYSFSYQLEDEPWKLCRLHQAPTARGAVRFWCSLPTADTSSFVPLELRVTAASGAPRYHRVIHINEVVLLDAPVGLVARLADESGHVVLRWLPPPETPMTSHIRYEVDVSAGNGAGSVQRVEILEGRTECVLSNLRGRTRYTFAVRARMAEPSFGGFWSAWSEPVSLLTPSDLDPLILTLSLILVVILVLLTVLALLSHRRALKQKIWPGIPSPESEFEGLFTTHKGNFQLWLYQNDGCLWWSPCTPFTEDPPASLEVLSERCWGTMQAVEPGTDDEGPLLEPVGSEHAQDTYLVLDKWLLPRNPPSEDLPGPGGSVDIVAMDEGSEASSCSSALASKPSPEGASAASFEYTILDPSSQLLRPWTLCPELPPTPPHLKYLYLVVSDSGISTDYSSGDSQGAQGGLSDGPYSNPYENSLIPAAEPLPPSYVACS
- RUN_DESCRIPTION: cell-based or functional assay
MEASURE_NAME: Emax (cell proliferation, absorbance)
Express it in absorbance; write the number only.

Consider the worked cases shown below.
BINDER	UNIT_OF_MEASURE	Emax (cell proliferation, absorbance)
Ab12 IgG2/K (antibody, V domains shown) VH: QVQLQESGPGLVKPSETLSLTCTVSGASISSYYWSWIRQPPGKGLEWIGYIYYSGSTNYNPSLKSRVTISVDTSKNQFSLKLRSVTAADTAVYYCARERLGIGDYWGQGTLVTVSS VL: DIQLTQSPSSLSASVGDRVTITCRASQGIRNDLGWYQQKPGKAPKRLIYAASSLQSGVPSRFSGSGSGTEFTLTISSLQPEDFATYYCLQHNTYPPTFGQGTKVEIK	absorbance	1.98
Ab12.123 (antibody, IgG2, V domains shown) VH: QVQLQESGPGLVKPSETLSLTCTVSGASISSYYWSWIRQPPGKGLEWIGYIGYEGSTNYNPSLKSRVTISVDTSKNQFSLKLRSVTAADTAVYYCARERLGIGDYWGQGTLVTVSS VL: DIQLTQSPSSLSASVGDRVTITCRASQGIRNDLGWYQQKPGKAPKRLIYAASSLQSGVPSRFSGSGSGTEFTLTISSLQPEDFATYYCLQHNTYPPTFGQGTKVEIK	absorbance	2.7
Ab12.120 (antibody, IgG2, V domains shown) VH: QVQLQESGPGLVKPSETLSLTCTVSGASISSYYWSWIRQPPGKGLEWIGYIYYEGSTNYNPSLKSRVTISVDTSKNQFSLKLRSVTAADTAVYYCARERLGIGDYWGQGTLVTVSS VL: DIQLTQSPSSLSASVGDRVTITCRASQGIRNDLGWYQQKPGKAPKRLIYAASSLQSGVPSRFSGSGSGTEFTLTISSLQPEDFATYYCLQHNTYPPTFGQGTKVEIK	absorbance	2
Ab12.118 (antibody, IgG2, V domains shown) VH: QVQLQESGPGLVKPSETLSLTCTVSGASISSYYWSWIRQPPGKGLEWIGYIGYSGSTNYNPSLKSRVTISVDTSKNQFSLKLRSVTAADTAVYYCARERLGIGDYWGQGTLVTVSS VL: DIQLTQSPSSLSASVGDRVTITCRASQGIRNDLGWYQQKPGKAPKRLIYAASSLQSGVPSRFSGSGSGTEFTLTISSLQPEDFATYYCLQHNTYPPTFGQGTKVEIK	absorbance	2.65

Fill blank: measured Emax (cell proliferation, absorbance) of the binder Ab12.6 (antibody, V domains shown) VH: QVQLQESGPGLVKPSETLSLTCTVSGASISSYYWSWIRQPPGKGLEWIGYIGGEGSTNYNPSLKSRVTISVDTSKNQFSLKLRSVTAADTAVYYCARERLGIGDYWGQGTLVTVSS VL: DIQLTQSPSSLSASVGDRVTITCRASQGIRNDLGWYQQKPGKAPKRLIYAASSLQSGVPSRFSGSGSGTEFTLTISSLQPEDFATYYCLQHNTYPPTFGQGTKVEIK is ____.
2.81
